biological target: Cellular tumor antigen p53 (Homo sapiens); experiment: TOX21_p53_BLA_p5_ratio: Tox21 HCT-116 p53 Agonism Beta-lactamase Assay, Ratio, Phase 5 (AID 2283599)
Inconclusive results are not listed. Active and inactive are the calls of the source. How the source made its calls: active means hit-call score of the fitted dose curve at least 0.9, where 1 is the maximum; inconclusive means response in the unintended direction; inactive means score below 0.9.
metricName: outcome

>>> valuemeasured("O=C(O)C(O)[C@H](O)[C@@H](O)[C@H](O)[C@H](O)CO (stereo partly specified)")
"inactive"
>>> valuemeasured("COc1cc2c(cc1OC)[C@@H](c1ccccc1)CN(C)CC2")
"inactive"
>>> valuemeasured("NC1=NCC2c3ccccc3Cc3ccccc3N12 (stereo unspecified)")
"inactive"
>>> valuemeasured("O=C(O)CCNC(=O)c1ccccc1")
"inactive"
>>> valuemeasured("COc1cc(C(=O)NCCCCCC(=O)O)cc(OC)c1OC")
"inactive"
>>> valuemeasured("CCCCCCCC/C=C\\CCCCCCCC(=O)OCCOC(=O)CCCCCCC/C=C\\CCCCCCCC")
"inactive"
